species on record: Mus musculus; assay: Ratio of Ki to Km for thymidylate synthetase in mouse Ehrlich ascites tumor cells
// reported Ki/Km for each item listed
Write no unit; give the number alone.

Example entries begin here.
>  <compound>
O=c1[nH]c(=O)n([C@H]2C[C@H](O)[C@@H](COP(=O)(O)O)O2)cc1CO

>  <Ki/Km>
0.15

$$$$
>  <compound>
CC(=O)c1cn([C@H]2C[C@H](O)[C@@H](COP(=O)(O)O)O2)c(=O)[nH]c1=O

>  <Ki/Km>
5.5

$$$$
>  <compound>
O=c1[nH]c(=O)n([C@H]2C[C@H](O)[C@@H](COP(=O)(O)O)O2)cc1CC1CO1 (stereo partly drawn)

>  <Ki/Km>
3.5

$$$$
>  <compound>
O=c1[nH]c(=O)n([C@H]2C[C@H](O)[C@@H](COP(=O)(O)O)O2)cc1COCc1ccccc1

>  <Ki/Km>
2.2

$$$$
>  <compound>
[N-]=[N+]=NCc1cn([C@H]2C[C@H](O)[C@@H](COP(=O)(O)O)O2)c(=O)[nH]c1=O

>  <Ki/Km>
1.2

$$$$

Measured Ki/Km, C=CCc1cn([C@H]2C[C@H](O)[C@@H](COP(=O)(O)O)O2)c(=O)[nH]c1=O : 10

Measured Ki/Km, O=Cc1cn([C@H]2C[C@H](O)[C@@H](COP(=O)(O)O)O2)c(=O)[nH]c1=O : 0.02

Measured Ki/Km, COCc1cn([C@H]2C[C@H](O)[C@@H](COP(=O)(O)O)O2)c(=O)[nH]c1=O : 4.7

* * *

species: Bos taurus; experiment: Ratio of Ki to Km for calf thymus thymidylate synthetase
Output rule met for records whose Ki/Km is lower than 4, rule not met for records at or above 4.

Worked examples, 6 molecules total:
>  <molecule>
O=c1[nH]c(=O)n([C@H]2C[C@H](O)[C@@H](COP(=O)(O)O)O2)cc1CC1CO1 (stereo partly drawn)

>  <answerLabel>
rule met

$$$$
>  <molecule>
CC(=O)c1cn([C@H]2C[C@H](O)[C@@H](COP(=O)(O)O)O2)c(=O)[nH]c1=O

>  <answerLabel>
rule not met

$$$$
>  <molecule>
O=c1[nH]c(=O)n([C@H]2C[C@H](O)[C@@H](COP(=O)(O)O)O2)cc1COCc1ccccc1

>  <answerLabel>
rule not met

$$$$
>  <molecule>
C=CCc1cn([C@H]2C[C@H](O)[C@@H](COP(=O)(O)O)O2)c(=O)[nH]c1=O

>  <answerLabel>
rule not met

$$$$
>  <molecule>
O=Cc1cn([C@H]2C[C@H](O)[C@@H](COP(=O)(O)O)O2)c(=O)[nH]c1=O

>  <answerLabel>
rule met

$$$$
>  <molecule>
[N-]=[N+]=NCc1cn([C@H]2C[C@H](O)[C@@H](COP(=O)(O)O)O2)c(=O)[nH]c1=O

>  <answerLabel>
rule met

$$$$

INPUT: Confirm or reject: Ki/Km of COCc1cn([C@H]2C[C@H](O)[C@@H](COP(=O)(O)O)O2)c(=O)[nH]c1=O lies strictly below 4
OUTPUT: rule met

INPUT: Confirm or reject: Ki/Km of O=c1[nH]c(=O)n([C@H]2C[C@H](O)[C@@H](COP(=O)(O)O)O2)cc1CO lies strictly below 4
OUTPUT: rule met

* * *

test: Non-competitive inhibition of calf thymus thymidylate synthetase using 5-[3H]-dUMP as substrate after 10 mins by scintillation counting analysis; design: species or system Bos taurus
measurementLabel: pKi
As a rule, pKi stands for the negative log10 of the concentration, concentration in M.

Measured pKi, O=Cc1cn([C@H]2C[C@H](O)[C@@H](COP(=O)(O)O)O2)c(=O)[nH]c1=O : 7.05
